Readout Label: melting point

Lab note: measured melting point of Nc1ncnc2c1c(-c1ccc(Oc3ccccc3)cc1)nn2C1CCC2(CC1)OCCO2 was 200 to 202.5 °C

The reported value for Nc1ncnc2c1c(-c1ccc(Oc3ccccc3)cc1)nn2[C@H]1CC[C@@H](N2CCNCC2)CC1.O=C(O)/C=C\C(=O)O.O=C(O)/C=C\C(=O)O.O=C(O)/C=C\C(=O)O in terms of melting point is 173 to 175 °C

Per the records, this molecule ( Nc1ncnc2c1c(-c1ccc(Oc3ccccc3)cc1)nn2C1CCOCC1 ) has melting point equal to 187 to 187.5 °C

Entry Nc1ncnc2c1c(-c1ccc(Oc3ccccc3)cc1)nn2[C@H]1CC[C@H](N2CCNCC2)CC1.O=C(O)/C=C\C(=O)O.O=C(O)/C=C\C(=O)O.O=C(O)/C=C\C(=O)O ; melting point = 153 to 155 °C
